Metric name: pIC50
Keep it numeric: pIC50 is minus log10 of the concentration in mol/L.

Ask | GET pIC50 where system = WbDHFR (dihydrofolate reductase) (Wuchereria bancrofti, UniProt J9F199) and item = COc1cc(NCc2ccc3nc(N)nc(N)c3c2C)cc(OC)c1OC [TMX, trimetrexate]
Reply | 6.31

---

Metric name: pKd
pKd here is simply -log10 of the concentration when that concentration is written in mol/L.

Ask | # lookup: WbDHFR (dihydrofolate reductase) (Wuchereria bancrofti) pKd, key = Nc1nc2ncc(CNc3ccc(C(=O)N[C@@H](CCC(=O)O)C(=O)O)cc3)nc2c(=O)[nH]1 [folate]
Reply | 7.64

Ask | Give the observed pKd of `NC(=O)C1=CN([C@@H]2O[C@H](COP(=O)(O)OP(=O)(O)OC[C@H]3O[C@@H](n4cnc5c(N)ncnc54)[C@H](OP(=O)(O)O)[C@@H]3O)[C@@H](O)[C@H]2O)C=CC1` for WbDHFR (dihydrofolate reductase) (Wuchereria bancrofti).
Reply | 7.05

From: paper PMC10191325
